System: HSC-2 (Oral Cavity Carcinoma)
EXPERIMENT DESCRIPTION: combination Emax (second highest fraction inhibited in the dose matrix, 72 h); higher = more inhibition; extreme values may be limits of the assay
Returns 1.0 if the recorded combination Emax is greater than or equal to 0.7, and 0.0 otherwise.

Does the compound Cc1cc2ncnn2cc1Nc1ncc2c(n1)n(C1CCOCC1)c(=O)n2C [AZD7648] + CCN(CCO)CCCOc1ccc2c(Nc3cc(CC(=O)Nc4cccc(F)c4)[nH]n3)ncnc2c1 [AZD2811] (first compound max 10 µM, 7x7, partner max 1 µM) have recorded combination Emax that is 0.7 or more? 0.0

Does the compound Cc1c2c(nn1C)CSCc1cc(n(C)n1)CSc1cc(c3ccccc3c1)OCCCc1c(C(=O)O)n(C)c3c-2c(Cl)ccc13 [AZD5991] + CN(C)CCCOc1ccc(-c2ccc3ncc4c(c3c2)n(C2CCOCC2)c(=O)n4C)cn1 [AZD0156] (first compound max 1 µM, 7x7, partner max 1 µM) have recorded combination Emax that is 0.7 or more? 1.0

Does the compound COc1cccc(OCCCN)c1-c1cc(Nc2cnc(C#N)cn2)n[nH]1 [Prexasertib] + CN(C)CCCOc1ccc(-c2ccc3ncc4c(c3c2)n(C2CCOCC2)c(=O)n4C)cn1 [AZD0156] (first compound max 1 µM, 7x7, partner max 1 µM) have recorded combination Emax that is 0.7 or more? 1.0

Does the compound COc1nnc2ccc(N3CCC(c4ccc(OCCN5CCN(C)C(=O)[C@H]5C)cc4)CC3)nn12 [AZD5153] + CC1(C)CCC(CN2CCN(c3ccc(C(=O)NS(=O)(=O)c4ccc(NCC5CCOCC5)c([N+](=O)[O-])c4)c(Oc4cnc5[nH]ccc5c4)c3)CC2)=C(c2ccc(Cl)cc2)C1 [Venetoclax] (first compound max 1 µM, 7x7, partner max 1 µM) have recorded combination Emax that is 0.7 or more? 0.0
